All values here come from ChEMBL document CHEMBL6092134.

A collection of compounds and their measured inhibition at 50 µM
Tested on: Staphylococcus aureus
protocol.text: Antibacterial activity against methicillin-resistant Staphylococcus aureus assessed as inhibition of bacterial growth at 50 uM by microdilution assay relative to control
Type: functional
The response must be a number in % with no trailing unit.

compound COc1cc(/C=C/C(=O)N2CCC(Nc3ccc(OC(F)(F)F)cc3)CC2)ccc1O , inhibition at 50 µM observed: 0

----------
Test system: Staphylococcus aureus
protocol.text: Antibacterial activity against methicillin-resistant Staphylococcus aureus assessed as inhibition of bacterial growth at 50 uM by microdilution assay relative to control
Type: functional
# maps each entry to its inhibition at 50 µM
The figure you give is taken to be in %; do not add the unit.

Lab book: inhibition at 50 µM of O=C(/C=C/c1ccc2c(c1)OCO2)N1CCC(Nc2ccccc2)CC1 noted as 0

Item: COc1cc(/C=C/C(=O)N2CCC(Nc3cccc(Cl)c3)CC2)ccc1O | inhibition at 50 µM: 0

Reported inhibition at 50 µM of COc1ccc(NC2CCN(C(=O)/C=C/c3ccc4c(c3)OCCO4)CC2)cc1 : 30
